These measurements were taken from patent US20170355775A1.

Molecular target: T1, canine CD20 ECD2 peptide (canine)
T1 peptide: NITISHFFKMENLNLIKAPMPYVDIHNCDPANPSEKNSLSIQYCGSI
Test: ELISA on canine CD20 ECD2 peptide
ASSAY METRIC: binding result

BINDER	ASSAY METRIC	VALUE OBSERVED
1E4-cIgGB with N33 to H substitution in VL (antibody, V domains shown, Whole antibody (heavy plus light chains) made 'using the above procedures') VH: EVQLVESGGGLVKPGGSLKLSCAASGFTFSDYGMLWVRQAPEKGLEWIAYISSGSSTIYYADRVKGRFTISRDNAKNTLFLQMTSLRSEDTAMYYCSTGTFAYWGQGTPVTVSS VL: DVVMTQNPLSLPVSLGDQASISCRSSQSLIYNHGNTYLHWYRQKPGQSPKLLIYKVSNRFSGVPDRFSGSGSGTDFTLKISRVEAEDLGVYFCSQSTHVPFTFGSGTKLEIKR	binding result	binds
1E4-cIgGB with N33 to E substitution in VL (antibody, V domains shown, Whole antibody (heavy plus light chains) made 'using the above procedures') VH: EVQLVESGGGLVKPGGSLKLSCAASGFTFSDYGMLWVRQAPEKGLEWIAYISSGSSTIYYADRVKGRFTISRDNAKNTLFLQMTSLRSEDTAMYYCSTGTFAYWGQGTPVTVSS VL: DVVMTQNPLSLPVSLGDQASISCRSSQSLIYNEGNTYLHWYRQKPGQSPKLLIYKVSNRFSGVPDRFSGSGSGTDFTLKISRVEAEDLGVYFCSQSTHVPFTFGSGTKLEIKR	binding result	binds
